Readings of protein stability index for the listed variants
B1: AUP1 (parent)
chain: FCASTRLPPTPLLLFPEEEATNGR

variants of: B1; assay: protein stability index of a GFP-peptide fusion (GPS, HEK-293T) (PSI 1-6); higher = more stable; settings: c terminus: a fixed tail appended;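 note: lentivirally expressed fusions sorted by FACS into six bins by GFP to DsRed ratio, PSI derived from sequencing read proportions per bin multiplied by bin number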
Reply with the value as a number alone.

Reference set (2 entries):
mutations: T10D
protein stability index: 2.84
//
mutations: R6V
protein stability index: 3.42

Now for a further variant.
// query # protein stability index lookup, item P9I
// result 2.43
